# TARGET OF ASSAY: Muscarinic acetylcholine receptor M1 (Homo sapiens)
# ASSAY INFO: Cholinergic receptor muscarinic 1 (CHRM1) small molecule antagonists, cell-based qHTS assay (AID 1963588); also: nearly all actives have a fitted effect of over 40% in size
# RUN PARAMETERS: CHRM1-CHO antagonist mode, calcium flux fluorescence; series mostly up to 61.5 µM
Inconclusive results are not listed. Active and inactive are the calls of the source. Calls follow the shape of the full dose curve.
Labels: yes (1) for active, no (0) for inactive

>>> category_label("O=C(O)c1c(Cl)cccc1Cl")
"no (0)"
>>> category_label("CN1CCC[C@@H]1Cc1c[nH]c2ccc(CCS(=O)(=O)c3ccccc3)cc12")
"no (0)"
>>> category_label("COc1cc2[nH]c(=O)[nH]c(=O)c2cc1OC")
"no (0)"
>>> category_label("CCC(=O)OC(=O)CC")
"no (0)"
>>> category_label("CCOCCOCCOC(C)=O")
"no (0)"
>>> category_label("CN1Cc2cc(C(=O)N3CCC(C4CCNCC4)CC3)ccc2NC(CC(=O)O)C1=O (stereo unspecified)")
"yes (1)"
>>> category_label("CC(C)(c1ccc(Oc2ccc3c(c2)C(=O)OC3=O)cc1)c1ccc(Oc2ccc3c(c2)C(=O)OC3=O)cc1")
"yes (1)"
>>> category_label("COc1cc(C)ccc1C(C)C")
"no (0)"
>>> category_label("O=C(Nc1ccc([N+](=O)[O-])cc1)Nc1ccc([N+](=O)[O-])cc1")
"no (0)"
>>> category_label("CN(C)C(=O)CNC(=O)Cc1ccccc1")
"no (0)"
>>> category_label("OCC(O)[C@@H](O)[C@H](O)[C@H](O)CO[C@H]1O[C@H](CO)[C@@H](O)[C@H](O)[C@H]1O (stereo partly specified)")
"no (0)"
>>> category_label("CCc1cc(Cl)c(OC)c(C(=O)NC[C@@H]2CCCN2CC)c1O")
"no (0)"
>>> category_label("COc1cccc(-c2ccc(/C=C\\CN3CCCCCC3)cc2Cl)c1")
"yes (1)"
>>> category_label("CS(=O)(=O)c1ccc(-c2cn3ccccc3n2)cc1")
"no (0)"
>>> category_label("CCNS(=O)(=O)c1ccc(C)cc1")
"no (0)"
>>> category_label("Nc1nc(-c2ccc([N+](=O)[O-])cc2)cs1")
"no (0)"
>>> category_label("CC1(C)OC[C@@H](COC(=O)CCc2ccc(OC[C@@H](O)CNCCNC(=O)N3CCOCC3)cc2)O1")
"no (0)"
>>> category_label("OCC(CO)n1cnc(-c2ccc(F)cc2)c1-c1ccnc(Oc2ccccc2)n1")
"no (0)"
>>> category_label("O=C(O)/C=C/c1ccc(/C=C/C(=O)O)cc1")
"no (0)"
>>> category_label("COc1cc(OC)nc(NC(=O)NS(=O)(=O)Nc2ccccc2C(=O)N(C)C)n1")
"no (0)"
>>> category_label("CCCCCCCCCCCCCCCCCC#N")
"no (0)"
>>> category_label("CC(=O)Nc1ccc(S(N)(=O)=O)cc1")
"no (0)"
>>> category_label("CCOC(=O)CS")
"no (0)"
>>> category_label("Cc1cc(C)c(NC(=O)CN(CC(=O)O)CC(=O)O)c(C)c1Br")
"no (0)"
>>> category_label("CCC1(C)NC(=O)NC1=O (stereo unspecified)")
"no (0)"
>>> category_label("CN(C)CCCOC1(Cc2ccccc2)CCCCCC1")
"no (0)"

Hey, just so you know, these numbers are from PubChem BioAssay (Tox21).
